Sequence of the target: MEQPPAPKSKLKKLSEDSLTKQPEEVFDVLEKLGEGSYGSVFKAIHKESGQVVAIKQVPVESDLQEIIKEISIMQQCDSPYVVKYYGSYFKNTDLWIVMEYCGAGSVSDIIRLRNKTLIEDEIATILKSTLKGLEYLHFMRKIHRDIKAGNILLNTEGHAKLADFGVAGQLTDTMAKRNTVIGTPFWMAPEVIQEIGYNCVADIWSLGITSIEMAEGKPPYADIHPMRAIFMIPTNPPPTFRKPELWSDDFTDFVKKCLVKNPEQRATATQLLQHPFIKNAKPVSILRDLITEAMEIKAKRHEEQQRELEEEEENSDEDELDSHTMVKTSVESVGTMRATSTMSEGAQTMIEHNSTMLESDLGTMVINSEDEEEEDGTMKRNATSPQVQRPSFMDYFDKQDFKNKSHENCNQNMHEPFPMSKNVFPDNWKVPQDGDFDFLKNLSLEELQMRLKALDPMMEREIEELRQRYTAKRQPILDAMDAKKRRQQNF
Attribute measured: IC50

Compound	IC50
CN(C)CC(O)COc1ccc(Nc2ncc([N+](=O)[O-])c(Nc3ccccc3O)n2)cc1.O=C(O)C(F)(F)F (centres unmarked) [TCMDC-141399]	> 20 µM

Note: attention shifts to another entry.
In: Report measured IC50; entry is Cl.NCC1(c2nc(-c3ccc(Cl)c(O)c3)c(-c3ccncc3)[nH]2)CCCCC1 [TCMDC-141154]
Out: > 20 µM

----------
Would you mind telling me the reported pIC50 of each entry?
Assayed target: UniProt:Q8I719
Sequence (Q8I719 whole entry): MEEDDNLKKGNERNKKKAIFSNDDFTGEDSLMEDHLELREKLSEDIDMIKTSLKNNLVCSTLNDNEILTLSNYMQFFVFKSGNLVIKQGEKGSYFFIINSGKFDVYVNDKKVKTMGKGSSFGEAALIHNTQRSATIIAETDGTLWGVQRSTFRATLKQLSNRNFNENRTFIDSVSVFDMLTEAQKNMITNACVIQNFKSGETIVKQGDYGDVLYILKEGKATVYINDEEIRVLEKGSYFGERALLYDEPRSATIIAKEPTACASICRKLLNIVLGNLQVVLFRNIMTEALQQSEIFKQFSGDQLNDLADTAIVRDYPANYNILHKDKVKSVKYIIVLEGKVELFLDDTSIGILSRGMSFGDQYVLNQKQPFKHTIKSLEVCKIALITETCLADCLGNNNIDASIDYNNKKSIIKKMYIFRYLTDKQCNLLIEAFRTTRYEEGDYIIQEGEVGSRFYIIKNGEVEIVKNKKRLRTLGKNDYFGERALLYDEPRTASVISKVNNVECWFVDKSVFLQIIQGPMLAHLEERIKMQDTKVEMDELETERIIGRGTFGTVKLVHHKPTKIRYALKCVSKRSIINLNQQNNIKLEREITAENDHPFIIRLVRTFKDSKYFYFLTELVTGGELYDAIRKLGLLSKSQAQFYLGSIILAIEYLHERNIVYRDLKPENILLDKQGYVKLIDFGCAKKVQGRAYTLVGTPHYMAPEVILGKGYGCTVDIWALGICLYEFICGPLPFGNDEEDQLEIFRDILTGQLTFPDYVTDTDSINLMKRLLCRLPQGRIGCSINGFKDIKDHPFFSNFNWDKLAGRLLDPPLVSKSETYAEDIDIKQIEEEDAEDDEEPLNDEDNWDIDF
Protocol notes: PKG IC50 (supplementary data file)
Assay type: biochemical
Description: Supplement pone.0149996.s003.xls, sheet "combined_1_sorted"
Answers are plain numbers, as −log10 of the molar value.

In the examples that follow, each entry is paired with its recorded pIC50.
CCn1c(-c2nonc2N)nc2c(-c3ccccc3)ncc(OCCCCNCCc3ncc[nH]3)c21.O=C(O)C(F)(F)F 6.02
CCn1c(-c2nonc2N)nc2c(-c3cccc(NC(=O)Nc4cccc(C#N)c4)c3)ncc(OCCCN)c21.O=C(O)C(F)(F)F 6.80
CNC(=O)c1ccccc1Nc1nc(Nc2ccc(CCN3CCN(C)CC3)cc2)ncc1Cl.Cl 6.06
NCCCNc1nc(Nc2cccc(C(N)=O)c2)c2c(=O)[nH]ccc2n1.O=C(O)C(F)(F)F 5.13
CCn1c(-c2nonc2N)nc2c(-c3cccc(Cl)c3)ncc(OCCCNCc3cnc(C)nc3N)c21.O=C(O)C(F)(F)F 5.04

Note: attention shifts to another entry.
In: Report measured pIC50; entry is `Cc1cccc(Nc2nc(N[C@@H]3CCCNC3)nc3cc[nH]c(=O)c23)c1.O=C(O)C(F)(F)F`
Out: 6.37

----------
Assayed target: BUB1 (Homo sapiens, UniProt O43683)
Sequence (O43683 whole entry): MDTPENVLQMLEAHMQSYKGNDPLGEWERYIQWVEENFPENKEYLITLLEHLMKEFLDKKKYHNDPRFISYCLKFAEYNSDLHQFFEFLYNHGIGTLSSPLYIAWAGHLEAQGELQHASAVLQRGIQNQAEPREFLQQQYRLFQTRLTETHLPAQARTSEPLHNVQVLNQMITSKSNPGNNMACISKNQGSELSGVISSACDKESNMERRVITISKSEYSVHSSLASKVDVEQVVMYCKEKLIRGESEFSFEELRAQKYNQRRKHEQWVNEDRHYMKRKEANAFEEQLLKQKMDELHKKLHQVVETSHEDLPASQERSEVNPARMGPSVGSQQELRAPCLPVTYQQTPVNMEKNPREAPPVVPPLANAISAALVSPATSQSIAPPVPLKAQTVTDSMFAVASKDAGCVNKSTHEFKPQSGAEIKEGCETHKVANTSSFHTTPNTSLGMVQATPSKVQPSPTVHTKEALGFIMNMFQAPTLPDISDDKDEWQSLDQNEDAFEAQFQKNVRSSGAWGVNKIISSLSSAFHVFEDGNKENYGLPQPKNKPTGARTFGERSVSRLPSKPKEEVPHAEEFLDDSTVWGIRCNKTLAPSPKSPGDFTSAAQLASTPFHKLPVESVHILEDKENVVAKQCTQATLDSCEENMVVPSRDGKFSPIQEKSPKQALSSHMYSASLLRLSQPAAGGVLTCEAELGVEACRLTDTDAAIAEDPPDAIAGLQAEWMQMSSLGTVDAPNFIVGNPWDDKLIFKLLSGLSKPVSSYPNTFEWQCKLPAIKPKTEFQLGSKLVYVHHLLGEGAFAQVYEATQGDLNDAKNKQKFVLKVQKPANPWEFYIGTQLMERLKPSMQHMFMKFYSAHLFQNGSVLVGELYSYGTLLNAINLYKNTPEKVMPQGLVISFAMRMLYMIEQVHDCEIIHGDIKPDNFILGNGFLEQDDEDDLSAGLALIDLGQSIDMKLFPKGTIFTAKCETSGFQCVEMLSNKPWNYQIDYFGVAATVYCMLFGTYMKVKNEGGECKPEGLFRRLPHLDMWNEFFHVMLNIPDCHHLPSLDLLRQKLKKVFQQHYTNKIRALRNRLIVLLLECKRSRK
pIC50: −log10 of the molar value.
Attribute measured: pIC50

In: Report measured pIC50; entry is CN(C)CC(O)COc1ccc(Nc2ncc([N+](=O)[O-])c(Nc3ccccc3O)n2)cc1.O=C(O)C(F)(F)F (stereo not shown)
Out: < 4.70

----------
Assayed target: TAOK3 (Homo sapiens, UniProt Q9H2K8)
Sequence (Q9H2K8 whole entry): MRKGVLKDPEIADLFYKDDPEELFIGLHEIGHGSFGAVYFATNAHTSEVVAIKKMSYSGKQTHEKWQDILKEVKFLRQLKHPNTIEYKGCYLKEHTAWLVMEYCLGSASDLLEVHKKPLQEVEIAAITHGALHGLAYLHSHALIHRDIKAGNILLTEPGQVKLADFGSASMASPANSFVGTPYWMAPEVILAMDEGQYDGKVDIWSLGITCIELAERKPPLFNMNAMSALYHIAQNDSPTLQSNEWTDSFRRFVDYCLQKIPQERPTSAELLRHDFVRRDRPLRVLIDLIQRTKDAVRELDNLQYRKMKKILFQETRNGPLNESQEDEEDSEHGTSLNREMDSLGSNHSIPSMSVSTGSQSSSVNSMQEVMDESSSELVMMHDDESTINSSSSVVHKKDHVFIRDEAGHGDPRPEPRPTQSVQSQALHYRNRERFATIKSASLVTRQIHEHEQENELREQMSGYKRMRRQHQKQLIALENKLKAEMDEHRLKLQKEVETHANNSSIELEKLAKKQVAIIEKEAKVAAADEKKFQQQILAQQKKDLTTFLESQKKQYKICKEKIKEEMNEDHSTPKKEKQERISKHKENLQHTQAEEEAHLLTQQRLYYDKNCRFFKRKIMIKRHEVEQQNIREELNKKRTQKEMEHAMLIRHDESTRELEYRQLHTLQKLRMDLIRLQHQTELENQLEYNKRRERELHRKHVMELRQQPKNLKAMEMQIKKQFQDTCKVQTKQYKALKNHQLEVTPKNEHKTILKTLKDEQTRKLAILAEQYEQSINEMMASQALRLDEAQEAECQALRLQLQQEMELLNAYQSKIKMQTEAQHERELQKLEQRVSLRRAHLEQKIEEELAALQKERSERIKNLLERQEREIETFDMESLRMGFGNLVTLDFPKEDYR
pIC50: −log10 of the molar value.
Attribute measured: pIC50

In: Report measured pIC50; entry is CN(C)CC(O)COc1ccc(Nc2ncc([N+](=O)[O-])c(Nc3ccccc3O)n2)cc1.O=C(O)C(F)(F)F (stereo not shown)
Out: < 4.70
